system: BT-549; experiment: normalised response (% of control), CellTox Green; higher = less cell death (100 = DMSO, 0 = benzethonium chloride kill control); details: incubation time: 72 h

| compound | target_of_assay | units_label | normalised response |
| --- | --- | --- | --- |
| CC(C)(C)c1nc(-c2cccc(NS(=O)(=O)c3c(F)cccc3F)c2F)c(-c2ccnc(N)n2)s1 [Dabrafenib] (250 nM) | BT-549 | % | 82.7 |
| CN(C)C(=N)NC(=N)N [Metformin] (1000 nM) | BT-549 | % | 70.4 |
| CCNC(=O)CCC/C=C\C[C@@H]1[C@@H](/C=C/[C@@H](O)CCc2ccccc2)[C@H](O)C[C@@H]1O [Bimatoprost] (5500 nM) | BT-549 | % | 121 |
| CC1(C)CCC(c2ccc(Cl)cc2)=C(CN2CCN(c3ccc(C(=O)NS(=O)(=O)c4ccc(N[C@H](CCN5CCOCC5)CSc5ccccc5)c(S(=O)(=O)C(F)(F)F)c4)cc3)CC2)C1 [Navitoclax] (1000 nM) | BT-549 | % | 95.6 |
| CO[C@@]12[C@H](COC(N)=O)C3=C(C(=O)C(C)=C(N)C3=O)N1C[C@@H]1N[C@@H]12 [Mitomycin C] (100 nM) | BT-549 | % | 99.5 |
